Test Description: Half life period was reported in total cell extract medium
Format: ADME

[
  {
    "Molecule": "CCCCCCCCCCCCOC[C@H]1O[C@@H](n2cc(C)c(=O)[nH]c2=O)C[C@@H]1O",
    "Unit Name": "min",
    "Comparison Sign": "=",
    "half-life": 15
  },
  {
    "Molecule": "Cc1cn([C@H]2C[C@H](OP(=S)(OC[C@H]3O[C@@H](n4cc(C)c(=O)[nH]c4=O)C[C@@H]3O)SCCSC(=O)C(C)(C)C)[C@@H](CO)O2)c(=O)[nH]c1=O (some centres undefined)",
    "Unit Name": "min",
    "Comparison Sign": "=",
    "half-life": 54
  },
  {
    "Molecule": "Cc1cn([C@H]2C[C@H](OP(=S)(OC[C@H]3O[C@@H](n4cc(C)c(=O)[nH]c4=O)C[C@@H]3O)SCCSC(=O)c3ccccc3)[C@@H](CO)O2)c(=O)[nH]c1=O (some centres undefined)",
    "Unit Name": "min",
    "Comparison Sign": "=",
    "half-life": 36
  },
  {
    "Molecule": "CC(=O)SCCSP(=S)(OC[C@H]1O[C@@H](n2cc(C)c(=O)[nH]c2=O)C[C@@H]1O)O[C@H]1C[C@H](n2cc(C)c(=O)[nH]c2=O)O[C@@H]1CO (some centres undefined)",
    "Unit Name": "min",
    "Comparison Sign": "<",
    "half-life": 5
  }
]

---

Entries and their half-life
Test Description: Half life period was reported in a culture medium (RPMI 1640 + 10% FCS)
Format: ADME
Property Measured: half-life (h)

[
  {
    "Compound": "Cc1cn([C@H]2C[C@H](OP(=S)(OC[C@H]3O[C@@H](n4cc(C)c(=O)[nH]c4=O)C[C@@H]3O)SCCSC(=O)C(C)(C)C)[C@@H](CO)O2)c(=O)[nH]c1=O (some centres undefined)",
    "Property Measured": "half-life",
    "Measured Value": 42.7
  },
  {
    "Compound": "CCCCCCCCCCCCOC[C@H]1O[C@@H](n2cc(C)c(=O)[nH]c2=O)C[C@@H]1O",
    "Property Measured": "half-life",
    "Measured Value": 32
  },
  {
    "Compound": "CC(=O)SCCSP(=S)(OC[C@H]1O[C@@H](n2cc(C)c(=O)[nH]c2=O)C[C@@H]1O)O[C@H]1C[C@H](n2cc(C)c(=O)[nH]c2=O)O[C@@H]1CO (some centres undefined)",
    "Property Measured": "half-life",
    "Measured Value": 6
  },
  {
    "Compound": "Cc1cn([C@H]2C[C@H](OP(=S)(OC[C@H]3O[C@@H](n4cc(C)c(=O)[nH]c4=O)C[C@@H]3O)SCCSC(=O)c3ccccc3)[C@@H](CO)O2)c(=O)[nH]c1=O (some centres undefined)",
    "Property Measured": "half-life",
    "Measured Value": 46.5
  }
]

---

Entries annotated with measured half-life
Test Description: Half life period was reported in porcine liver esterase medium
Type: ADME, Sus scrofa
Cond: pig

[
  {
    "Compound": "CC(=O)SCCSP(=S)(OC[C@H]1O[C@@H](n2cc(C)c(=O)[nH]c2=O)C[C@@H]1O)O[C@H]1C[C@H](n2cc(C)c(=O)[nH]c2=O)O[C@@H]1CO (stereo partly drawn)",
    "half-life": "< 2 min"
  },
  {
    "Compound": "Cc1cn([C@H]2C[C@H](OP(=S)(OC[C@H]3O[C@@H](n4cc(C)c(=O)[nH]c4=O)C[C@@H]3O)SCCSC(=O)c3ccccc3)[C@@H](CO)O2)c(=O)[nH]c1=O (stereo partly drawn)",
    "half-life": "5 min"
  },
  {
    "Compound": "Cc1cn([C@H]2C[C@H](OP(=S)(OC[C@H]3O[C@@H](n4cc(C)c(=O)[nH]c4=O)C[C@@H]3O)SCCSC(=O)C(C)(C)C)[C@@H](CO)O2)c(=O)[nH]c1=O (stereo partly drawn)",
    "half-life": "< 4 min"
  }
]
